These entries and their values trace back to ChEMBL document CHEMBL1156274.

Reported pIC50 is given for each of the following molecules.
ASSAYED SYSTEM: Disintegrin and metalloproteinase domain-containing protein 17 (Homo sapiens, UniProt P78536)
Sequence (P78536 whole entry, the tested form may be a part): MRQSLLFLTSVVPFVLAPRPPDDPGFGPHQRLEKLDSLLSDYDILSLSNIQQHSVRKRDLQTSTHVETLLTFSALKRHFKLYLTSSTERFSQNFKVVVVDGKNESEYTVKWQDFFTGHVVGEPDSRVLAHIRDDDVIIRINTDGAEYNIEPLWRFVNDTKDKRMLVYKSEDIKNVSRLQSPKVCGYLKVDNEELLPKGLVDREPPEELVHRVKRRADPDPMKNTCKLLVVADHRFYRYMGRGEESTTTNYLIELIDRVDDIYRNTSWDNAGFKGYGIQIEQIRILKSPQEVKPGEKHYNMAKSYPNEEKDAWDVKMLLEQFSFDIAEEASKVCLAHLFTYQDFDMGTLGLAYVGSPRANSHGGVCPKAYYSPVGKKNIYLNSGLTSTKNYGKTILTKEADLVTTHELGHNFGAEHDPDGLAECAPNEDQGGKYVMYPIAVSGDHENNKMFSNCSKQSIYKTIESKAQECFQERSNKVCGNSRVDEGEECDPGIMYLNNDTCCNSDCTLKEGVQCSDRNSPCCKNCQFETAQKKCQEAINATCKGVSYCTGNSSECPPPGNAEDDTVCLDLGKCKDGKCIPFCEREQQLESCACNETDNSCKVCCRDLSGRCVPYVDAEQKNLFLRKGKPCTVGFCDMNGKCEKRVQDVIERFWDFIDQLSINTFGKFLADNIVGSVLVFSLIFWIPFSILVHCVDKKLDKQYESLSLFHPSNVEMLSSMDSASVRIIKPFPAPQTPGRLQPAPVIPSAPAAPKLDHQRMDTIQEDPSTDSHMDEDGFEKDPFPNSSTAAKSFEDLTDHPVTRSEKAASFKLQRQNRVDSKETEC
EXPERIMENTAL DETAILS: Inhibition of ADAM17 in human GI-CA-N cells assessed as inhibition of pervanadate-induced sALCAM release by ELISA
Assay type: cell-based
Please express pIC50 as -log10 of the molar concentration.

Before answering, review these 2 worked examples.
CC#CCOc1ccc(S(=O)(=O)N[C@H](CCN2C(=O)c3ccccc3C2=O)C(=O)NO)cc1; 7.14
CC#CCOc1ccc(S(=O)(=O)N[C@H](CCNC(=O)OCc2ccccc2)C(=O)NO)cc1; 6.30

query: Identify the reported pIC50 for the following entry. COc1ccc(S(=O)(=O)N(Cc2cccnc2)[C@@H](C(=O)NO)C(C)C)cc1.Cl [CGS-27023A]
result: 5.96
